Attribution: PubChem BioAssay

Catalogue of rescue above control values
assay: rescue of polyQ-huntingtin neuronal dysfunction in worms, whole organism, C. elegans mechanosensory neurons, N-terminal huntingtin (AID 1599); conditions: touch response, stronger effect = higher value
Potency and affinity values are given separately.

molecule	rescue above control
C#C[C@]1(O)CCC2C3CCC4=CC(=O)CC[C@@H]4C3CC[C@@]21CC (stereo not given in full)	7
CO/N=C(/C(=O)NC1C(=O)N2C(C(=O)O)=C(COC(N)=O)CSC12)c1ccco1 (stereo not given)	-9.55
C[C@]12C=CC(=O)C=C1CCC1C2[C@@H](O)C[C@@]2(C)C1CC[C@]2(O)C(=O)CO (stereo not given in full)	1.9
C[N+]1(C)C2CC(OC(=O)[C@@H](CO)c3ccccc3)CC1C1OC12 (stereo not given in full)	-0.68
NC(N)=Nc1nc(CSCC/C(N)=N\S(N)(=O)=O)cs1	-0.31
C[C@H](CCC(=O)O)[C@H]1CCC2C3C(=O)CC4CC(=O)CC[C@]4(C)C3CC(=O)[C@@]21C (stereo not given in full)	-5.38
Nc1ccc(C(=O)O)c(O)c1 (tested in a mixture with another compound)	-2.24
NCC[C@@H](O)C(=O)N[C@@H]1C[C@H](N)[C@@H](O[C@H]2O[C@H](CN)[C@@H](O)[C@H](O)[C@H]2O)[C@H](O)[C@H]1O[C@H]1O[C@H](CO)[C@@H](O)[C@H](N)C1O (stereo not given in full)	-4.05
Cc1c(C)c2c(c(C)c1O)CCC(C)(CCCC(C)CCCC(C)CCCC(C)C)O2 (stereo not given)	-0.91
COC(=O)C(N)CS (stereo not given)	-5.25
C#C[C@]1(OC(C)=O)CCC2C3CCC4=CC(=O)CC[C@@H]4C3CC[C@@]21C (stereo not given in full)	0.31
NC(COCc1ccccc1)C(=O)O (stereo not given)	1.64
COc1ccc(-c2cc(=O)c3c(O)cc(O[C@@H]4O[C@H](CO[C@H]5O[C@H](C)[C@@H](O)[C@H](O)[C@@H]5O)[C@@H](O)[C@H](O)[C@H]4O)cc3o2)cc1O	-9.51
COC(=O)C1[C@H]2C[C@H]3c4[nH]c5ccccc5c4CCN3C[C@@H]2CC[C@@H]1O (stereo not given in full)	15.8
CNC[C@@H](O)c1ccc(O)c(O)c1	-0.75
CC(=O)N[C@@H]1[C@@H](C(O)[C@H](O)CO)O[C@](O)(C(=O)O)C[C@@H]1O (stereo not given in full)	-7.75
C=CC[C@@H]1/C=C(\C)C[C@H](C)C[C@H](OC)[C@H]2O[C@@](O)(C(=O)C(=O)N3CCCC[C@H]3C(=O)O[C@H](/C(C)=C/[C@@H]3CC[C@@H](O)[C@H](OC)C3)[C@H](C)[C@@H](O)CC1=O)[C@H](C)C[C@@H]2OC	0
CCCC(=O)Nc1ncnc2c1ncn2C1O[C@@H]2COP(=O)(O)O[C@H]2[C@H]1OC(=O)CCC (stereo not given in full)	1.51
C#C[C@]1(O)CCC2C3CCC4=CC(=O)CC[C@@H]4C3CC[C@@]21C (stereo not given in full)	10.4
OCC(S)CS (stereo not given)	28.1
CNC(C)[C@@H]1CC[C@@H](N)[C@@H](OC2[C@@H](N)C[C@@H](N)[C@H](OC3OC[C@](C)(O)[C@H](NC)[C@H]3O)[C@H]2O)O1 (stereo not given in full)	-1.8
CC1(C)S[C@@H]2[C@H](NC(=O)COc3ccccc3)C(=O)N2[C@H]1C(=O)O	1.16
CC12CCC3C(=CCc4cc(O)ccc43)C1CCC2=O (stereo not given)	0.8
CC1(C)C2CC[C@]3(C)C(C(=O)C=C4[C@@H]5C[C@@](C)(C(=O)O)CC[C@]5(C)CC[C@]43C)[C@@]2(C)CC[C@@H]1O (stereo not given in full)	12
NC(Cc1cc(I)c(Oc2ccc(O)c(I)c2)c(I)c1)C(=O)O (stereo not given)	-0.14
CCOC(=O)OC(C)OC(=O)C1N2C(=O)C(NC(=O)[C@H](N)c3ccccc3)C2SC1(C)C (stereo not given in full)	-4.3
CC[C@H]1CN2CCc3cc(OC)c(OC)cc3C2C[C@@H]1CC1NCCc2cc(OC)c(OC)cc21 (stereo not given in full)	-0.41
CC(C)Oc1ccc2c(=O)cc(-c3ccccc3)oc2c1	6.51
CN[C@@H]1[C@H](OC2[C@H](O[C@H]3[C@H](O)[C@@H](O)[C@H](N=C(N)N)[C@@H](O)[C@@H]3N=C(N)N)O[C@@H](C)[C@]2(O)C=O)O[C@@H](CO)[C@H](O)[C@H]1O (stereo not given in full)	0.21
NC(Cc1ccc(F)cc1)C(=O)O (stereo not given)	3.95
Cn1nnnc1SCC1=C(C(=O)O)N2C(=O)C(NC(=O)C(O)c3ccccc3)C2SC1 (stereo not given)	-1.89
C[C@@H]1CC2C3CCC4=CC(=O)C=C[C@]4(C)[C@@]3(F)[C@@H](O)C[C@]2(C)[C@@]1(O)C(=O)COP(=O)(O)O (stereo not given in full)	-9.5
CC(=O)Oc1c(C)c(C)c2c(c1C)CCC(C)(CCCC(C)CCCC(C)CCCC(C)C)O2 (stereo not given)	1.2
CCC[C@@H]1C[C@@H](C(=O)N[C@H]([C@H]2O[C@H](SC)[C@H](O)[C@@H](O)[C@H]2O)[C@H](C)O)N(C)C1	8.96
N.N.O=C(O)C1(C(=O)O)CCC1.[Pt]	12.6
